Each record here notes measured MIC.
system: Micrococcus luteus; experiment: Antimicrobial activity against Micrococcus luteus ATCC 4698 by microbroth dilution method; assay type: functional
RECORDED_METRIC: MIC (µg/mL)

smiles_entry=Cc1c(C(=O)NNCc2nc3ccccc3n2Cc2ccc(F)cc2)sc(C(=O)NNCc2nc3ccccc3n2Cc2ccc(F)cc2)c1C rel== measured_value=128
smiles_entry=Cc1c(C(=O)NNCc2nc3ccccc3n2Cc2ccc(F)cc2)sc(C(=O)NNCc2nc3ccccc3n2Cc2ccc(F)cc2)c1C.Cl rel== measured_value=64
smiles_entry=Cc1c(C(=O)NNCc2nc3ccccc3n2Cc2ccccc2Cl)sc(C(=O)NNCc2nc3ccccc3n2Cc2ccccc2Cl)c1C rel== measured_value=16
smiles_entry=O=C(N[C@H](CO)[C@H](O)c1ccc([N+](=O)[O-])cc1)C(Cl)Cl rel== measured_value=8
smiles_entry=CCCn1c(CNNC(=O)c2sc(C(=O)NNCc3nc4ccccc4n3CCC)c(C)c2C)nc2ccccc21.Cl rel== measured_value=256
smiles_entry=CCCCCCCCCCn1c(CNNC(=O)c2sc(C(=O)NNCc3nc4ccccc4n3CCCCCCCCCC)c(C)c2C)nc2ccccc21 rel== measured_value=16
smiles_entry=CCCCCCCCCCn1c(CNNC(=O)c2sc(C(=O)NNCc3nc4ccccc4n3CCCCCCCCCC)c(C)c2C)nc2ccccc21.Cl rel== measured_value=8
smiles_entry=CCCCCCCCCCCCCCCCCCn1c(CNNC(=O)c2sc(C(=O)NNCc3nc4ccccc4n3CCCCCCCCCCCCCCCCCC)c(C)c2C)nc2ccccc21 rel=> measured_value=512
smiles_entry=CCCn1c(CNNC(=O)c2sc(C(=O)NNCc3nc4ccccc4n3CCC)c(C)c2C)nc2ccccc21 rel== measured_value=256
smiles_entry=Cc1c(C(=O)NN)sc(C(=O)NN)c1C rel== measured_value=512
smiles_entry=CCCCCCCCn1c(CNNC(=O)c2sc(C(=O)NNCc3nc4ccccc4n3CCCCCCCC)c(C)c2C)nc2ccccc21 rel== measured_value=16
smiles_entry=Cc1c(C(=O)NNCc2nc3ccccc3n2Cc2ccc(Cl)c(Cl)c2)sc(C(=O)NNCc2nc3ccccc3n2Cc2ccc(Cl)c(Cl)c2)c1C rel=> measured_value=512
smiles_entry=Cc1c(C(=O)NNCc2nc3ccccc3n2Cc2ccc(Cl)cc2)sc(C(=O)NNCc2nc3ccccc3n2Cc2ccc(Cl)cc2)c1C rel== measured_value=16
smiles_entry=CCn1cc(C(=O)O)c(=O)c2cc(F)c(N3CCNCC3)cc21 rel== measured_value=2
smiles_entry=Cc1c(C(=O)NN)sc(C(=O)NNCc2nc3ccccc3[nH]2)c1C rel== measured_value=128
smiles_entry=Cc1c(C(=O)NNCc2nc3ccccc3n2Cc2cccc(Cl)c2)sc(C(=O)NNCc2nc3ccccc3n2Cc2cccc(Cl)c2)c1C rel== measured_value=32

Source listed as ChEMBL document CHEMBL2203243.
